A collection of variants and their measured self-cleavage
B1: HDV Ribozyme (parent)
chain: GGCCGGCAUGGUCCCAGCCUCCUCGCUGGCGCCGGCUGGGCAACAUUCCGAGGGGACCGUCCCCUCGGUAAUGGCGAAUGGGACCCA

variants of: B1; assay: self-cleavage, relative activity (ratio to wild type); higher = more cleavage; co-transcriptional
READOUT: self-cleavage

| SEQUENCE VARIANT | EXPERIMENTAL RESULT |
| --- | --- |
| C7A G35A | 0.0841 |
| G11A C41U | 0.396 |
| G6A A87C | 0.635 |
| C33G G35U | 0.142 |
| C24A G55C | 0.818 |
| C14U G25A | 0.115 |
| C49U A87C | 1.05 |
| G1C G82U | 0.095 |
| G28C A45G | 0.0811 |
| U9C G11U | 0.383 |
| C24G C41A | 0.113 |
| C3G C86G | 1.14 |
| C22U A45U | 0.325 |
| G38A A56G | 0.108 |
| U27G A77C | 0.277 |
| G11C C13G | 0.0437 |
| C4U C36U | 0.272 |
| G39C C85A | 0.203 |
| G25U U27C | 0.107 |
| A56G C64A | 0.764 |
| C62U C84U | 0.819 |
| A51G A56G | 1.08 |
